Assay: growth inhibition, single agent or in combination, cell-based, chromothripsis tumors, cisplatin or BGB combos (AID 1671449);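 further: cells exposed for 96 hours; 0% = vehicle DMSO and 100% = killing by high DMSO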
Details: LFS_MB_P medulloblastoma cells, measured here: combination with BGB IC40, at 0.005 µM
Please go through the items and note down their inhibition.
Numbers only, in %.

Consider the following illustrative entries.
| Compound | Quantity Kind | Assay Value |
| --- | --- | --- |
| Cc1cc(C#N)cc(C)c1Oc1nc(Nc2ccc(C#N)cc2)nc(N)c1Br | inhibition | -30.6 |
| CC(=O)C1(O)Cc2c(O)c3c(c(O)c2C(OC2CC(N)C(O)C(C)O2)C1)C(=O)c1ccccc1C3=O (stereo not drawn) | inhibition | -38.8 |
| O=C(CCCCCCC(=O)Nc1ccc(I)cc1)NO | inhibition | -26.4 |

Each compound below has a recorded value; state its inhibition.
1. C=C(NC(=O)C(=C)NC(=O)c1csc(C2=NC3c4csc(n4)C4NC(=O)c5csc(n5)C(C(C)(O)C(C)O)NC(=O)C5CSC(=N5)/C(=C/C)NC(=O)C(C(C)O)NC(=O)c5csc(n5)C3(CC2)NC(=O)C(C)NC(=O)C(=C)NC(=O)C(C)NC(=O)C(C(C)CC)NC2C=Cc3c(C(C)O)cc(nc3C2O)C(=O)OC4C)n1)C(N)=O (stereo not drawn)
2. CC1CNC(=O)NC1=O (stereo not drawn)
3. C=C(C)C1CCC2(C(=O)O)CCC3(C)C(CCC4C5(C)CCC(O)C(C)(C)C5CCC43C)C12 (stereo not drawn)

a:
1. -22.6
2. -7.63
3. 15.5

Each compound below has a recorded value; state its inhibition.
1. Nc1ncn(C2OC(CO)C(O)C2O)c(=O)n1 (stereo not drawn)
2. CC1OC(CC(=O)O)CC2=C1C(=O)c1c(O)cccc1C2=O (stereo not drawn)

a:
1. 6.88
2. -16.6

###

Assay: glutamate transport activators, MN-1 cells, MN-1 cell line (AID 1612);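 further: tested at 1 µM final; 0% = mean of DMSO vehicle wells on each plate; positive means more glutamate uptake than control and negative means less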
Conditions: MN-1 motor neuron cells, stronger effect = higher value
Quantity Kind: glutamate uptake change (%)
Numbers only, in %.

Consider the following illustrative entries.
| Compound | Quantity Kind | Unit Abbrev | Assay Value |
| --- | --- | --- | --- |
| CC(=O)N[C@@H](Cc1c[nH]c2ccccc12)C(N)=O | glutamate uptake change | % | -9.38 |
| CC(=O)Oc1ccc2c(c1)CCC1C2CCC2(C)C(=O)CCC12 (stereo unspecified) | glutamate uptake change | % | -16 |
| CC(Cc1ccc(O)c(O)c1)C(C)Cc1ccc(O)c(O)c1 (stereo unspecified) | glutamate uptake change | % | 67.2 |

Each compound below has a recorded value; state its glutamate uptake change.
1. CN[C@@H]1[C@H](O)[C@H](NC)[C@H]2O[C@@]3(O)C(=O)C[C@@H](C)O[C@H]3OC2[C@H]1O (stereo partly specified)
2. CC(=O)CCC1C2=NC(=C\C3=NC(=C(/C)C4=NC(C)(C5[N-]/C(=C\2C)C(C)(CCC(=O)NCC(C)OP(=O)(O)O[C@@H]2[C@@H](CO)OC(n6cnc7cc(C)c(C)cc76)[C@@H]2O)C5CC(N)=O)C(C)(CC(N)=O)C4CCC(N)=O)/C(C)(CC(N)=O)C3CCC(N)=O)/C1(C)C.[CH2-][C@H]1OC(n2cnc3c(N)ncnc32)[C@H](O)[C@@H]1O.[Co+2] (stereo partly specified)
3. O[N+]1=CC=CCC1=S.On1ccccc1=S.[Zn]
4. NC[C@@H]1O[C@H](O[C@@H]2[C@@H](CO)OC(O[C@@H]3[C@@H](O)[C@H](N)C[C@H](N)[C@H]3OC3O[C@H](CO)[C@@H](O)[C@H](O)[C@H]3N)[C@@H]2O)[C@H](N)[C@@H](O)[C@@H]1O (stereo partly specified)
5. NCC1OC(OC2C(N)CC(N)C(OC3OC(CO)C(O)C(N)C3O)C2O)C(N)C(O)C1O (stereo unspecified)
6. NCC1CCC(N)C(OC2C(N)CC(N)C(OC3OC(CO)C(O)C(N)C3O)C2O)O1 (stereo unspecified)
7. CC1(C)S[C@@H]2[C@H](NC(=O)[C@H](NC(=O)N3CCNC3=O)c3ccccc3)C(=O)N2C1C(=O)O (stereo partly specified)

a:
1: 4.38; 2: 14.2; 3: -74.2; 4: -14.4; 5: -14.8; 6: 14.5; 7: 7.74

Recorded result, C[C@@H]1CC2C3C[C@H](F)C4=CC(=O)C=CC4(C)C3(F)[C@@H](O)CC2(C)C1C(=O)COC(=O)C(C)(C)C (stereo partly specified) , glutamate uptake change: 10.9

###

Assay: drug combination growth inhibition, ovarian cancer – cell-based, oncology-focused library, rucaparib conditional, profiling panel (AID 1508598)
Conditions: patient-derived ovarian cancer cells, CellTiter-Glo viability, 144 h; at 0.00488 µM; OCI-C5x cells; with rucaparib 10 µM; stronger effect = lower value; 100% = cells with rucaparib alone
Quantity Kind: viability (%)
Numbers only, in %.

Consider the following illustrative entries.
| Molecule | Assay Value |
| --- | --- |
| COc1ccccc1-c1cc(Nc2cccc(CS(N)(=O)=O)c2)ncn1 | 127 |
| COc1ccc(C2=N[C@H](c3ccc(Cl)cc3)[C@@H](c3ccc(Cl)cc3)N2C(=O)N2CCNC(=O)C2)c(OC(C)C)c1 | 130 |
| COc1cccc2c1C(=O)c1c(O)c3c(c(O)c1C2=O)C[C@@](O)(C(=O)CO)C[C@H]3O[C@H]1C[C@H](N)[C@@H](O)[C@H](C)O1 | 90.6 |
| C[C@]12CCC(=O)C=C1CC[C@@H]1[C@H]2[C@H](O)C[C@@]2(C)[C@H]1CC[C@@]2(O)C(=O)CO | 114 |
| CCC1=CC2CN(C1)Cc1c([nH]c3ccccc13)[C@@](C(=O)OC)(c1cc3c(cc1OC)N(C)[C@H]1[C@@](O)(C(=O)OC)[C@H](OC(C)=O)[C@]4(CC)C=CCN5CC[C@@]31[C@H]54)C2 (stereo partly specified) | 50.6 |

Attention now shifts to the item below.
Recorded result, `O=C(/C=C/c1ccc2ccccc2n1)c1ccncc1` , viability: 119

###

Experiment: drug combination growth inhibition, ovarian cancer – cell-based, oncology-focused library, rucaparib conditional, profiling panel (AID 1508598)
Details: patient-derived ovarian cancer cells, CellTiter-Glo viability, 144 h; at 5 µM; OCI-P5x cells; without rucaparib; stronger effect = lower value
Quantity Kind: viability (%)
One number for each entry, in %.

Consider the following illustrative entries.
| Compound | Unit Abbrev | viability |
| --- | --- | --- |
| CO[C@H]1C[C@@H]2CC[C@@H](C)[C@@](O)(O2)C(=O)C(=O)N2CCCC[C@H]2C(=O)O[C@H]([C@@H](C)C[C@@H]2CC[C@@H](OCCO)[C@H](OC)C2)CC(=O)[C@H](C)/C=C(\C)[C@H](O)[C@@H](OC)C(=O)[C@H](C)C[C@H](C)/C=C/C=C/C=C/1C | % | 59.4 |
| C=CS(=O)(=O)NC1CCN(C(=O)CNc2cc(I)c(Cl)cc2OC)CC1 | % | 86 |
| COc1cccc2c1C(=O)c1c(O)c3c(c(O)c1C2=O)C[C@@](O)(C(=O)CO)C[C@H]3O[C@H]1C[C@H](N)[C@@H](O)[C@H](C)O1 | % | 5.43 |
| CCOC(=O)c1[nH]c2cc(Cl)ccc2c1C(C(=O)NC(C)(C)C)N(C=O)Cc1ccc(Cl)cc1 (stereo unspecified) | % | 101 |
| CN(C)CCSSCCNC(=O)C1CCN(C(=O)CSc2ccc(Cl)cc2)CC1 | % | 87.3 |
| CCOC(=O)c1cnc2ccc(-c3cncc(NS(=O)(=O)c4ccccc4)c3)cn12 | % | 8.51 |

Each compound below has a recorded value; state its viability.
1. COc1ccccc1-c1cc(Nc2cccc(CS(N)(=O)=O)c2)ncn1
2. COc1cc(Br)c(Nc2nc(-c3c(C)nc4ncccn34)cs2)c(Br)c1
3. C[C@@]12CC[C@H]3c4ccc(O)cc4C[C@@H](CCCCCCCCCS(=O)CCCC(F)(F)C(F)(F)F)[C@H]3[C@@H]1CC[C@@H]2O (stereo partly specified)

a:
[74.8, 19, 122]

###

Test: growth inhibition, single agents and combos, LFS_MB_1R, cell-based, cisplatin or BGB combos, synergistic combos for chromothripsis tumors (AID 1671452);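 further: cells exposed for 96 hours before readout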
Details: LFS_MB_1R medulloblastoma cells, measured here: combination with cisplatin, at 5 µM, stronger effect = higher value
Label TRUE when inhibition is at or above 10%; otherwise label FALSE.

| Compound | Cat |
| --- | --- |
| CCC(C)C(=O)OC1CC(C)C=C2C=CC(C)C(CCC3CC(O)CC(=O)O3)C21 (stereo not given) | TRUE |
| CN(C)C(=S)NN=C(c1ccccn1)c1ccccn1 | TRUE |
| Cn1cnc2[nH]c(=O)[nH]c(=O)c21 | FALSE |
| CCC1(O)C(=O)OCc2c1cc1n(c2=O)Cc2cc3cc(O)ccc3nc2-1 (stereo not given) | TRUE |
| Cc1cn(C2CC(O)C(COP(=O)(O)OP(=O)(O)OP(=O)(O)O)O2)c(=O)[nH]c1=O (stereo not given) | FALSE |

q: Please tell me: is the compound CC(C)(O)[C@H]1CC[C@@](C)(C2[C@@H](O)C[C@@]3(C)[C@@H]4C[C@H](O)C5C(C)(C)[C@@H](O)CCC56CC46CC[C@]23C)O1 (stereo not given in full) at or over 10% in terms of inhibition?
a: FALSE

q: Please tell me: is the compound `Cc1cc(C)cc(C(=O)NOCCCCCC(=O)NO)c1` at or over 10% in terms of inhibition?
a: TRUE
